# assayed_system: ENaC (Mus musculus, UniProt Q61180+Q9WU38+Q9WU39)
# Construct: Mouse kidney M-1 cells were cultivated in DMEM containing 5% FCS and 5 μM dexamethasone; endogenous in cells
# Sequence (Q61180 1-699): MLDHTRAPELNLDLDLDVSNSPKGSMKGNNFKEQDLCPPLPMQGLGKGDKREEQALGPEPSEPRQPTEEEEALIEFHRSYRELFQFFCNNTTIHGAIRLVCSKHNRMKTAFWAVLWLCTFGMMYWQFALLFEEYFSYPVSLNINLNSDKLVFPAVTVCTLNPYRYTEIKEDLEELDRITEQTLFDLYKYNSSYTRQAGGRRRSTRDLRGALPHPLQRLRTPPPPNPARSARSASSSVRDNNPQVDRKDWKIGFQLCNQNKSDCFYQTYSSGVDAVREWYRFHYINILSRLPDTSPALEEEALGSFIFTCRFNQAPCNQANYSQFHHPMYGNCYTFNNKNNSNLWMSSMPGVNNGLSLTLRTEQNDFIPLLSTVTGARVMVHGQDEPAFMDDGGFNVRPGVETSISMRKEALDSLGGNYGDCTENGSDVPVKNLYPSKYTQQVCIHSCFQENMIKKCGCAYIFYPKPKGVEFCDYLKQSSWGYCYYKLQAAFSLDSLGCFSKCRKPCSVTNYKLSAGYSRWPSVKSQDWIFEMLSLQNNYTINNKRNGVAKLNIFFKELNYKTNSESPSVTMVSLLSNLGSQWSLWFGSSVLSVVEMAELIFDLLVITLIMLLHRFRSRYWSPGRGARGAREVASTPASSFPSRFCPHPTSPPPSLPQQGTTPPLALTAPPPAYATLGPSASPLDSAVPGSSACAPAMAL
# Sequence (Q9WU38 1-638): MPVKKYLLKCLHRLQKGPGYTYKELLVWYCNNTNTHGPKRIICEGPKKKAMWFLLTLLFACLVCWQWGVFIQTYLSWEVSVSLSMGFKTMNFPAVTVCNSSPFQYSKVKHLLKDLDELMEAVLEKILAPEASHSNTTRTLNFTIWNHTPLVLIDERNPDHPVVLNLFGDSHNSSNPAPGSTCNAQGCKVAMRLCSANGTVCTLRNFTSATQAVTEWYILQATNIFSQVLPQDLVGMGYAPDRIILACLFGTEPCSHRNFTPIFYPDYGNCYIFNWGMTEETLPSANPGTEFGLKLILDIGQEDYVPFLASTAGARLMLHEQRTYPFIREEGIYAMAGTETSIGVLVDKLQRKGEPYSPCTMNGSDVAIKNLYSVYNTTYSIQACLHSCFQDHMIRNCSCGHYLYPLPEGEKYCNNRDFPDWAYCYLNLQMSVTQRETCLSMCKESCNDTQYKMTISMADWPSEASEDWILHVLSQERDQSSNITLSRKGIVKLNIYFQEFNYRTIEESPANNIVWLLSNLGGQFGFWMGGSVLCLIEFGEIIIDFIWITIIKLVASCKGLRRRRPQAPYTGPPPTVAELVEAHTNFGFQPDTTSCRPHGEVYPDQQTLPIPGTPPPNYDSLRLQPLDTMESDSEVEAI
# Sequence (Q9WU39 1-655): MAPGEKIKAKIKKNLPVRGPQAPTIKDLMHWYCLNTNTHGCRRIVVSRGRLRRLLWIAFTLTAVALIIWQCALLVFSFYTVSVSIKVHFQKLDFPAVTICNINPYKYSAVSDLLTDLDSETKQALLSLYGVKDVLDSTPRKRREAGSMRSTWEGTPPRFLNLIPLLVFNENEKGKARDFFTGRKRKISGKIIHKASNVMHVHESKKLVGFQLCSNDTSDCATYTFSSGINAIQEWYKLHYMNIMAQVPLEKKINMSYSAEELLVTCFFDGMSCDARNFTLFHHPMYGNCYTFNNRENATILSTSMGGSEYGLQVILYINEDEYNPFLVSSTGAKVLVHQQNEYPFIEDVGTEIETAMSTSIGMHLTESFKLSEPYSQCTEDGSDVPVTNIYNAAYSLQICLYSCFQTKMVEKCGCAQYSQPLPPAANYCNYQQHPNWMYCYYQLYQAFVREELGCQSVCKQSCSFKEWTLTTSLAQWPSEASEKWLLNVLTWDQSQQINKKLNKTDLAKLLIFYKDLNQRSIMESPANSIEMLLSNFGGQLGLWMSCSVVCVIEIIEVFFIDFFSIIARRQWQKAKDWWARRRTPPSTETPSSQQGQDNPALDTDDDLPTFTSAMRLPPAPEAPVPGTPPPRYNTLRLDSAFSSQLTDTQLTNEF
# assay_name: Ussing chamber: short circuit current (I_sc) in mouse kidney M-1 cells, amiloride-sensitive
# test_parameters: compound applied to apical solution, 37° C.
# Method: Ussing Chamber: Mouse kidney M-1 cells were cultivated in DMEM containing 5% FCS and 5 μM dexamethasone for 10 to 12 days on polyester transwell filters. […] Short circuit currents (I_sc) were measured in the voltage-clamp mode using an in-house built amplifier (Boehringer Ingelheim, Biberach) with the software package Lab View for data acquisition and analysis. The transepithelial electrical resistance (TEER) was determined by the application of voltage steps of ±5 mV every 5 sec. […]
Structures can show the parent of a compound that is named as a salt.
observed_property: pIC50
Scale for pIC50: -log10 of concentration given in mol/L; no unit attached.

Take a look at these entries with their results.
>>> observed_result("COc1cccc(C[N+]23CCC(CC2)[C@H](NC(N)=NC(=O)c2nc(Cl)c(N)nc2N)C3)c1")
7.85
>>> observed_result("N=C(NC(=O)c1nc(Cl)c(N)nc1N)N[C@@H]1C[N+]2(CC(=O)N[C@H](Cc3ccccc3)C(=O)O)CCC1CC2 [Example 73.1, hydrochloride]")
6.71
>>> observed_result("N#Cc1ccc(C[N+]23CCC(CC2)[C@H](NC(N)=NC(=O)c2nc(Cl)c(N)nc2N)C3)cc1")
6.69

### Prompt Entry under review: NC(=NC(=O)c1nc(Cl)c(N)nc1N)N[C@@H]1C[N+]2(Cc3cccnc3)CCC1CC2 . Reported pIC50?
### Response 6.98

### Prompt For the compound CC[N+]1(CC(=O)Nc2cccc(F)c2)CCC(NC(N)=NC(=O)c2nc(Cl)c(N)nc2N)CC1 (stereo not drawn) , what pIC50 is on record?
### Response 7.51

### Prompt Field request: pIC50 | item: NC(=NC(=O)c1nc(Cl)c(N)nc1N)N[C@@H]1C[N+]2(Cc3ccc(Cl)cc3)CCC1CC2
### Response 7.74

### Prompt Which pIC50 is listed for COC(=O)c1ccc(C[N+]2(C)CCC(NC(N)=NC(=O)c3nc(Cl)c(N)nc3N)CC2)cc1 (stereo not drawn) ?
### Response 7.19

### Prompt Any idea what pIC50 was measured for NC(=NC(=O)c1nc(Cl)c(N)nc1N)N[C@@H]1C[N+]2(Cc3cc(F)cc(F)c3)CCC1CC2 ?
### Response 7.52

### Prompt Quick one: pIC50 of CCOC(=O)c1cccc(CCNC(=O)C[N+]23CCC(CC2)[C@H](NC(N)=NC(=O)c2nc(Cl)c(N)nc2N)C3)c1 ?
### Response 7.37

### Prompt What pIC50 value was documented for this compound, CCOC(=O)N1CCC(NC(=O)C[N+]23CCC(CC2)[C@H](NC(N)=NC(=O)c2nc(Cl)c(N)nc2N)C3)CC1 ?
### Response 7.12

### Prompt Would you kindly share the measured pIC50 for NC(=NC(=O)c1nc(Cl)c(N)nc1N)N[C@@H]1C[N+]2(Cc3ccncc3)CCC1CC2 ?
### Response 6.55

### Prompt // pIC50 lookup, key: NC(=NC(=O)c1nc(Cl)c(N)nc1N)N[C@@H]1C[N+]2(Cc3ccc(C(F)(F)F)cc3)CCC1CC2
### Response 7.37

### Prompt Look up pIC50: COc1ccccc1C[N+]12CCC(CC1)[C@H](NC(N)=NC(=O)c1nc(Cl)c(N)nc1N)C2
### Response 7.04

### Prompt Using the record for N/C(=N\C(=O)c1nc(Cl)c(N)nc1N)NC1C[N+]2(CC(=O)Nc3ccccc3)CCC1CC2 (stereo not drawn) , report its pIC50.
### Response 7.59

### Prompt Need pIC50 of COC(=O)c1ccc(CCNC(=O)C[N+]23CCC(CC2)[C@H](NC(N)=NC(=O)c2nc(Cl)c(N)nc2N)C3)cc1 , thanks.
### Response 8.70
